target: Delta-type opioid receptor (Homo sapiens); settings: CHO
Sequence (P41143 whole entry): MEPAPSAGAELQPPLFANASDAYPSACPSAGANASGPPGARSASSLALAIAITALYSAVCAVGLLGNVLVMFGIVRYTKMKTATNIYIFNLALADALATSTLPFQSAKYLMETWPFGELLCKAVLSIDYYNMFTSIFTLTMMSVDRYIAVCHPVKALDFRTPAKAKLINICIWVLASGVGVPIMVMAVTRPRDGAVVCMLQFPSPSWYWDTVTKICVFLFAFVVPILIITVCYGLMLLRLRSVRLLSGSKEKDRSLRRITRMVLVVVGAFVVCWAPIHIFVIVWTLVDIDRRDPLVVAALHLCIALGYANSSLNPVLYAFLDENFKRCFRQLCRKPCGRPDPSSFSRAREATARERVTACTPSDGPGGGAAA
Description: Ability to displace DPDPE from human recombinant Opioid receptor delta 1 in CHO cells using [35S]- GTP-gamma S Assay
Kindly supply the reported Ke values for the records listed here.
Numbers only, in nM.

Take a look at these entries with their results.
CCCC(=N)NCCc1ccc2[nH]c3c(c2c1)C[C@@]1(O)C2Cc4ccc(O)c5c4[C@@]1(CCN2CC1CC1)[C@H]3O5
1.89
CC(C)CC(=N)NCCc1ccc2[nH]c3c(c2c1)C[C@@]1(O)C2Cc4ccc(O)c5c4[C@@]1(CCN2CC1CC1)[C@H]3O5
5.23
CC(=N)NCCc1ccc2[nH]c3c(c2c1)C[C@@]1(O)C2Cc4ccc(O)c5c4[C@@]1(CCN2CC1CC1)[C@H]3O5
1.79

Prompt: Name the reported Ke value associated with the compound CCCCC(=N)NCCc1ccc2[nH]c3c(c2c1)C[C@@]1(O)C2Cc4ccc(O)c5c4[C@@]1(CCN2CC1CC1)[C@H]3O5
Completion: 3.31
